Data origin: the supplement of paper PMC10307832

# System: NCI-H3122
# Test description: relative viability (nuclei count vs DMSO), 5 days (fraction); higher = more cells survive
# Conditions used: first compound 5 µM
Recorded endpoint: relative viability
Give bare numbers.

Some solved entries appear below for comparison.
O=C(O)CCCCC(CCSCc1ccccc1)SCc1ccccc1 (stereo not given) [CPI-613] + CS(=O)(=O)N1CCN(Cc2cc3nc(-c4cccc5[nH]ncc45)nc(N4CCOCC4)c3s2)CC1 [Pictilisib] (partner 1 µM) yielded relative viability of 0.587

O=C(O)CCCCC(CCSCc1ccccc1)SCc1ccccc1 (stereo not given) [CPI-613] + CC1(C)CCC(c2ccc(Cl)cc2)=C(CN2CCN(c3ccc(C(=O)NS(=O)(=O)c4ccc(N[C@H](CCN5CCOCC5)CSc5ccccc5)c(S(=O)(=O)C(F)(F)F)c4)cc3)CC2)C1 [Navitoclax] (partner 0.5 µM) yielded relative viability of 0.992

O=C(O)CCCCC(CCSCc1ccccc1)SCc1ccccc1 (stereo not given) [CPI-613] + C[C@]1(O)C[C@@H](c2nc(-c3ccc4ccc(-c5ccccc5)nc4c3)c3c(N)nccn32)C1 [Linsitinib] (partner 1 µM) yielded relative viability of 0.985

O=C(O)CCCCC(CCSCc1ccccc1)SCc1ccccc1 (stereo not given) [CPI-613] + Cc1nc(NC(=O)N2CCC[C@H]2C(N)=O)sc1-c1ccnc(C(C)(C)C(F)(F)F)c1 [Alpelisib] (partner 2 µM) yielded relative viability of 0.638

Okay, now this compound:
O=C(O)CCCCC(CCSCc1ccccc1)SCc1ccccc1 (stereo not given) [CPI-613] + O=C(CCCCCCC(=O)Nc1ccccc1)NO [Vorinostat] (partner 1 µM) yielded relative viability of 0.795
